- CONDITIONS: in diisopropyl ether, 323.15 K
METRIC: solubility (mole fraction)
The reply should be a number, written without any unit.

Provide one value: measured solubility (mole fraction) of CCC[C@@H]1CC(=O)N([C@@H](CC)C(N)=O)C1 0.0341

====

- CONDITIONS: in ethyl acetate, 288.15 K
METRIC: solubility (mole fraction)
The reply should be a number, written without any unit.

Provide one value: measured solubility (mole fraction) of CCC[C@@H]1CC(=O)N([C@@H](CC)C(N)=O)C1 0.0769

====

- CONDITIONS: in ethanol, 318.15 K
METRIC: solubility (mole fraction)

Provide one value: measured solubility (mole fraction) of CCC[C@@H]1CC(=O)N([C@@H](CC)C(N)=O)C1 0.523
